List of GI50 at 48 h values.
Experiment: Cytotoxicity against human GES1 cells assessed as cell viability incubated for 48 hrs by MTT assay
Format: toxicity, cell-based

Write down GI50 at 48 h measured for item Nc1ccc(Oc2cccc(NC(=O)Nc3ccc(Cl)c(C(F)(F)F)c3)c2)cn1 10.2 µM

Write down GI50 at 48 h measured for item O=C(Nc1cccc(Oc2cnc3[nH]ccc3c2)c1)Nc1cccc(C(F)(F)F)c1 40.7 µM

Write down GI50 at 48 h measured for item Nc1ccc(Oc2ccc(NC(=O)Nc3ccc(F)c(C(F)(F)F)c3)cc2)cn1 52.5 µM

Write down GI50 at 48 h measured for item Cn1cc(-c2ccc(-c3cncc(Cl)c3N3CCC4(CCNC4=O)CC3)cc2)cn1 42.7 µM

Write down GI50 at 48 h measured for item Nc1ccc(Oc2cccc(NC(=O)Nc3ccc(Cl)c(Cl)c3)c2)cn1 > 100 µM
